Listed molecules paired with reported PAMPA Pm
Experiment: Blood-Brain Barrier (BBB) permeability assay (IAM column, Pm)
Type: in vitro ADME
Settings: pH 7.4; Pm > 1.0 = CNS+
Please respond with just the number, no unit label.

molecule | quantity_name | readout_value
Cc1sc2c(c1C)C(c1ccc(Cl)cc1)=N[C@@H](CC(=O)N1CCCC1)c1nnc(C)n1-2 | PAMPA Pm | 0.98

Challenge: // PAMPA Pm lookup, key: `Cc1sc2c(c1C)C(c1ccc(Cl)cc1)=N[C@@H](CC(=O)OC1COC1)c1nnc(C)n1-2`
Response given: 0.96

###

Target: BRD2 (Homo sapiens, UniProt P25440)
Sequence (P25440 whole entry): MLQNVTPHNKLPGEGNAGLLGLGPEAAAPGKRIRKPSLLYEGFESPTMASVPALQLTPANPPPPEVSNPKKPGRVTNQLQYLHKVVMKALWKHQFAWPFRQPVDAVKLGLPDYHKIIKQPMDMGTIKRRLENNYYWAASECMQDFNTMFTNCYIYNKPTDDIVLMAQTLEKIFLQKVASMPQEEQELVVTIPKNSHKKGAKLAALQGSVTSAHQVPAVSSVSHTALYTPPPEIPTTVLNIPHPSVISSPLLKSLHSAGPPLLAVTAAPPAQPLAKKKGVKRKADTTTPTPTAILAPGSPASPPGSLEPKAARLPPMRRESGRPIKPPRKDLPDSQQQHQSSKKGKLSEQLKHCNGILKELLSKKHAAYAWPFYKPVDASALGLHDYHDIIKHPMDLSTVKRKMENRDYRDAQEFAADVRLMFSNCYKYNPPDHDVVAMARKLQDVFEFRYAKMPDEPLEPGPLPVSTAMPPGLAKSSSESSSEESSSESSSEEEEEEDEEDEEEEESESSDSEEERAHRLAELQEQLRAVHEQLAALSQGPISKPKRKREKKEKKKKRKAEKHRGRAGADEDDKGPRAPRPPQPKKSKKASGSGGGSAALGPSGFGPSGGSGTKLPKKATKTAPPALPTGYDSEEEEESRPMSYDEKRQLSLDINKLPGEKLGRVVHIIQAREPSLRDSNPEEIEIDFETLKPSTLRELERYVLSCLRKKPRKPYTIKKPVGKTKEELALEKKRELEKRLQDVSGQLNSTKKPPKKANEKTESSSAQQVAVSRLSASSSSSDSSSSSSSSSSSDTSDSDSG
Experiment: BRD2 inhibition assay
Format: biochemical
Details: read-out: BRD2 IC50
quantity_name: pIC50
# pIC50: negative log10 of molar concentration; output just the value

molecule | target | pIC50
Cc1sc2c(c1C)C(c1ccc(Cl)cc1)=N[C@@H](CC(=O)NO)c1nnc(C)n1-2 | BRD2 (Homo sapiens, UniProt P25440) | 6.40
Cc1sc2c(c1C)C(c1ccc(Cl)cc1)=N[C@@H](CC(=O)NC1CCCC1)c1nnc(C)n1-2 | BRD2 (Homo sapiens, UniProt P25440) | 6.41
Cc1sc2c(c1C)C(c1ccc(Cl)cc1)=N[C@@H](CC(=O)NCC(=O)OC(C)C)c1nnc(C)n1-2 | BRD2 (Homo sapiens, UniProt P25440) | 6.42

Challenge: // pIC50 lookup, key: Cc1sc2c(c1C)C(c1ccc(Cl)cc1)=NC(CC(=O)NC(C)C(=O)OC(C)C)c1nnc(C)n1-2 (centres unmarked)
Response given: 6.89

Challenge: Field entry: `Cc1sc2c(c1C)C(c1ccc(Cl)cc1)=N[C@@H](CC(=O)N1CCCC1)c1nnc(C)n1-2`
Response given: 6.19

###

Experiment: Brain tissue binding assay (dialysis)
Assay type: in vitro ADME
Conditions: brain homogenate 20 mg/mL, 2 µM compound, dialysis 4.5 hours, 37 °C
quantity_name: Brain Tissue Binding (% bound)
Please respond with the number in % bound and leave the unit unwritten.

compound | readout_value
Cc1sc2c(c1C)C(c1ccc(Cl)cc1)=N[C@@H](CC(=O)OC1COC1)c1nnc(C)n1-2 [DDL-356] | 57
Cc1sc2c(c1C)C(c1ccc(Cl)cc1)=N[C@@H](CC(=O)NC1CCCC1)c1nnc(C)n1-2 [DDL-353] | 79

Continue with the compound presented below.
Challenge: // Brain Tissue Binding lookup, key: Cc1sc2c(c1C)C(c1ccc(Cl)cc1)=NC(CC(=O)NC(C)C(=O)OC(C)C)c1nnc(C)n1-2 (stereo not drawn) [DDL-359]
Response given: 44

###

Assay: Plasma binding assay (dialysis)
Format: in vitro ADME
Settings: dialysis 4.5 hours, 37 °C
quantity_name: Plasma Binding (% bound)
Please respond with the number in % bound and leave the unit unwritten.

compound | readout_value
Cc1sc2c(c1C)C(c1ccc(Cl)cc1)=N[C@@H](CC(=O)NC1CCCC1)c1nnc(C)n1-2 [DDL-353] | 93
Cc1sc2c(c1C)C(c1ccc(Cl)cc1)=N[C@@H](CC(=O)OC1COC1)c1nnc(C)n1-2 [DDL-356] | 79

Challenge: // Plasma Binding lookup, key: CCCCOC(=O)C[C@@H]1N=C(c2ccc(Cl)cc2)c2c(sc(C)c2C)-n2c(C)nnc21 [DDL-358]
Response given: 98

Challenge: Field entry: Cc1sc2c(c1C)C(c1ccc(Cl)cc1)=N[C@@H](CC(=O)N1CCCC1)c1nnc(C)n1-2 [DDL-352]
Response given: 96

Challenge: Field entry: Cc1sc2c(c1C)C(c1ccc(Cl)cc1)=N[C@@H](CC(=O)NO)c1nnc(C)n1-2 [DDL-360]
Response given: 88
